# ASSAYED_SYSTEM: T1, hROR2-Fc (human ROR2 Fc fusion protein) (human, UniProt Q01974 34-403, limits assumed)
# T1 construct: Given both as hROR2-Fc and as Fc-hROR2, so the order of the two parts is not certain; also called Fc-hROR2; not shown: human Fc part (captured by a mouse anti-human IgG CH2 / Fcγ mAb)
# ASSAY_EXPLANATION: SPR (Biacore X100), Fc-hROR2 captured on CM5 chip via mouse anti-human Fcγ mAb, Fab as analyte, 1:1 binding model
METRIC_NAME: kon (M⁻¹ s⁻¹)
Expressed in M⁻¹ s⁻¹, but write only the number.

Report measured kon; entry is X4.12 (Fab, V domains shown, one of the top 12 chimeric rabbit/human anti-human ROR2 Fabs selected from the focused HCDR3 mutagenesis library) VH: QSVKESEGGLFKPTDTLTLTCTVSGFSLSSYGVTWVRQAPGSGLEWIGYINTAGNTYYASWAKSRSTITRNTNENTVTLKMTSLTAADTATYFCARDYMMNSLNIWGPGTLVTVSS VL: DPMLTQTPSSTSTAVGDTVTIKCQASQSISSDLSWYQQKPGQRPKLLIYQASTLASGVPSRFKGSGYGTEYTLTISGVQREDAAIYYCLGGYADASYRTAFGGGTKLEIK
53000
